test system: Blood; assay: Biodistribution in blood of mouse EMT6 tumor bearing BALB/c mouse at 10 to 20 uCi after 120 mins; type: ADME, organism-based; conditions: in vivo, 2 h
Value kind: Drug uptake (% ID/g)

COc1cc2c(cc1OC)CN(CCCCNC(=O)c1cc(Br)ccc1OCC[18F])CC2 :: 0.52

[1] COc1cc2c(cc1OC)CN(CCCCNC(=O)c1cc(I)ccc1OCC[18F])CC2
[2] COc1cc2c(cc1OC)CN(CCCCNC(=O)c1cc(I)cc(OC)c1OCC[18F])CC2
Prompt: Just tell me: smaller Drug uptake value, 1 or 2 ? Select an item and report its label.
Completion: 2
(2: 0.28 % ID/g, 1: 1.92 % ID/g)

###

system: Brain; experiment: Biodistribution in brain of mouse EMT6 tumor bearing BALB/c mouse at 10 to 20 uCi after 120 mins; format: ADME, organism-based; conditions: in vivo, 2 h
Value kind: Drug uptake (% ID/g)

[I] COc1cc2c(cc1OC)CN(CCCCNC(=O)c1cc(C)ccc1OCC[18F])CC2
[II] COc1cc2c(cc1OC)CN(CCCCNC(=O)c1cc(Br)ccc1OCC[18F])CC2
Prompt: Task for the reader: decide whether I or II has the larger Drug uptake. Select an item and report its label.
Completion: II
(II: 0.2 % ID/g, I: 0.12 % ID/g)

[1] COc1cc2c(cc1OC)CN(CCCCNC(=O)c1cc(I)ccc1OCC[18F])CC2
[2] COc1cc2c(cc1OC)CN(CCCCNC(=O)c1cc(I)cc(OC)c1OCC[18F])CC2
Prompt: Task for the reader: decide whether 1 or 2 has the larger Drug uptake. Select an item and report its label.
Completion: 1

###

test system: EMT6; experiment: Biodistribution in tumor of mouse EMT6 tumor bearing BALB/c mouse at 10 to 20 uCi after 120 mins; format: ADME, organism-based; conditions: emt6, 2 h
Value kind: Drug uptake (% ID/g)

COc1cc2c(cc1OC)CN(CCCCNC(=O)c1cc(Br)ccc1OCC[18F])CC2 :: 0.96

[P] COc1cc2c(cc1OC)CN(CCCCNC(=O)c1cc(I)cc(OC)c1OCC[18F])CC2
[Q] COc1cc2c(cc1OC)CN(CCCCNC(=O)c1cc(I)ccc1OCC[18F])CC2
[R] COc1cc2c(cc1OC)CN(CCCCNC(=O)c1cc(C)ccc1OCC[18F])CC2
Prompt: Rank descending by Drug uptake. Form entry: labels listed in requested order.
Completion: Q, P, R

###

system: Muscle tissue; assay: Biodistribution in muscle of mouse EMT6 tumor bearing BALB/c mouse at 10 to 20 uCi after 120 mins; type: ADME, organism-based; conditions: in vivo, 2 h
Value kind: Drug uptake (% ID/g)

COc1cc2c(cc1OC)CN(CCCCNC(=O)c1cc(Br)ccc1OCC[18F])CC2 :: 0.28

[I] COc1cc2c(cc1OC)CN(CCCCNC(=O)c1cc(C)ccc1OCC[18F])CC2
[II] COc1cc2c(cc1OC)CN(CCCCNC(=O)c1cc(I)cc(OC)c1OCC[18F])CC2
[III] COc1cc2c(cc1OC)CN(CCCCNC(=O)c1cc(I)ccc1OCC[18F])CC2
Prompt: Number of compounds to sort: 3. Sort criterion: Drug uptake, ascending. Form entry: labels listed in requested order.
Completion: II, I, III
